# Tested on: Male Wiga Wistar rats
# test.name: Reversal of LY-404039-induced decrease of palpebral opening in apomorphine-challenged rats
# Type: in vivo, rat
# particulars: Rattus norvegicus; rats, route PO (route cell empty for Co. 88 and 84); read-out: ED50 APO LY-404039 (Reversal of LY-404039-induced decrease of palpebral opening in apomorphine challenged rats)
# Protocol: 1) Reversal of LY-404039-Induced Decrease of Palpebral Opening in Apomorphine-Challenged Rats. Male Wiga Wistar rats (Crl:WI; Charles River Germany; 220±40 g) were housed under standard laboratory conditions (21±2° C.; 50-65% relative humidity; light-dark cycle set at 12 h; lights on at 6.00 h) and fasted overnight prior to the start of the experiments (tap water remained available ad libitum). During the test period, they were housed in individual cages. […]
Provide the reported ED50 of each item.
// units = mg/kg; emit number, no label

Need ED50, item C[C@H]1CN(c2ccc(C(F)(F)F)cc2)C(=O)c2c(C(=O)Nc3cnccn3)cnn21 0.32

Param item: C[C@H]1CN(c2ccc(Cl)cc2)C(=O)c2c(C(=O)Nc3cccnc3)cnn21 0.32

Thanks! And Cc1ccncc1NC(=O)c1cnn2c1C(=O)N(c1ccc(C(F)(F)F)cc1)C[C@@H]2C ? 0.13

Continue with C[C@H]1CN(c2ccc(C(F)(F)F)cc2)C(=O)c2c(C(=O)Nc3cncc(F)c3)cnn21 0.32

Okay, and COc1cncc(NC(=O)c2cnn3c2C(=O)N(c2ccc(C(F)(F)F)cc2)C[C@@H]3C)c1 ? 1.99

And for Cc1cc(NC(=O)c2cnn3c2C(=O)N(c2ccc(C(F)(F)F)cc2)C[C@@H]3C)ccn1 ? 0.32

====

Would you kindly list GTPγS - hmGluR2 anGT pIC50 for each of these compounds?
# study.target: human mGlu2 receptor (Homo sapiens)
# Sequence (Q14416 19-872): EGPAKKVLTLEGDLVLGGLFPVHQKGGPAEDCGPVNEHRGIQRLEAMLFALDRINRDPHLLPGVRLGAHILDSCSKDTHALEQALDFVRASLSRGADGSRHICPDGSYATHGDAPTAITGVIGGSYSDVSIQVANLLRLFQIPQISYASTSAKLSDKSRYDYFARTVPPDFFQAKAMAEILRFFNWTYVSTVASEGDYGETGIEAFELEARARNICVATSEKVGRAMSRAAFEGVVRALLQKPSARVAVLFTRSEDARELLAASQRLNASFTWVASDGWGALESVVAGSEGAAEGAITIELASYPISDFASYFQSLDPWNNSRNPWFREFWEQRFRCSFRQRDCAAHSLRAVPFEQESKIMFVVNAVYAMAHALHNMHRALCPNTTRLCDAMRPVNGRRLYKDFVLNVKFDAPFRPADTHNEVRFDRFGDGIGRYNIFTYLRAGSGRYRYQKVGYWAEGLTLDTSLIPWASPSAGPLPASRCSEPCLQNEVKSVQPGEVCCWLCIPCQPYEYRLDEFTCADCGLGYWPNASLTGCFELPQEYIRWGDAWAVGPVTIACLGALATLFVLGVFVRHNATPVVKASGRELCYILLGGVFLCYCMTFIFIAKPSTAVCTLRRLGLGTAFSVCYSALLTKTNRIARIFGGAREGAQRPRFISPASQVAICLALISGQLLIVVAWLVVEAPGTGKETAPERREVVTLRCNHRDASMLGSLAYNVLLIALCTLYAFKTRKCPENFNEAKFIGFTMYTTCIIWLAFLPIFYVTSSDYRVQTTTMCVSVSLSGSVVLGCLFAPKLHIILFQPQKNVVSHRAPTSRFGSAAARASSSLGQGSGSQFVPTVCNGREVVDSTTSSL
# test.name: [35S]GTPγS binding assay, mGluR2 negative allosteric modulation (membranes from CHO cells transfected with human mGlu2 receptor, glutamate ~EC80 60 μM);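 note: membranes preincubated 30 min at 30 °C with compound plus glutamate, then [35S]GTPγS (0.1 nM) incorporation measured over another 30 min at 30 °C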
# particulars: membranes with human mGlu2 receptor, glutamate ~EC80 (60 μM); pIC50 = -log IC50 (M)
Hey, just send me the number, nothing else.

For the compound COCC1CN(c2ccc(C(F)(F)F)cc2)C(=O)c2c(C(=O)Nc3cnccn3)cnn21 (single isomer, unassigned) [compound 154] , what GTPγS - hmGluR2 anGT pIC50 is on record? 8.31

Same again, this time with COCC1CN(c2ccc(C(F)(F)F)cc2)C(=O)c2c(C(=O)Nc3cccnc3)cnn21 (single isomer, unassigned) [compound 159] 6.10

Cool, now C[C@H]1CN(c2ccc(C(F)(F)F)c(F)c2)C(=O)c2c(C(=O)Nc3cccnc3)cnn21 8.72

And what about the compound Cc1cncc(NC(=O)c2cnn3c2C(=O)N(c2ccc(Cl)c(Cl)c2)C[C@@H]3C)c1 ? 9.06

Same thing, different compound: COCC1CN(c2ccc(C(F)(F)F)cc2)C(=O)c2c(C(=O)Nc3cnccn3)cnn21 (single isomer, unassigned) [compound 155] 6.48

Same again, this time with COc1cncc(NC(=O)c2cnn3c2C(=O)N(c2ccc(Cl)c(Cl)c2)C[C@@H]3C)c1 8.75

Now consider Cc1cc(NC(=O)c2cnn3c2C(=O)N(c2ccc(C(F)(F)F)c(Cl)c2)C[C@@H]3C)ccn1 . 8.91

Then what about the compound COCc1cc(NC(=O)c2cnn3c2C(=O)N(c2ccc(C(F)(F)F)cc2)C[C@@H]3C)ccn1 ? 7.69

Then Cc1cc(NC(=O)c2cnn3c2C(=O)N(c2ccc(C(F)(F)F)cc2)C[C@@H]3C)cc(C)n1 ? 8.57

Cool, now COCC1CN(c2ccc(C(F)(F)F)cc2)C(=O)c2c(C(=O)Nc3cccnc3)cnn21 (single isomer, unassigned) [compound 158] 8.48

What about this compound? C[C@H]1CN(c2ccc(Cl)c(Cl)c2)C(=O)c2c(C(=O)Nc3ccc(F)nc3)cnn21 8.53

Follow-up entry: COCC1CN(c2ccc(C(F)(F)F)c(Cl)c2)C(=O)c2c(C(=O)Nc3cccnc3)cnn21 (single isomer, unassigned) 8.77

Next up: C[C@H]1CN(c2ccc(Cl)c(Cl)c2)C(=O)c2c(C(=O)Nc3cncc(F)c3)cnn21 9.09

Can you handle C[C@H]1CN(c2ccc(Cl)c(Cl)c2)C(=O)c2c(C(=O)Nc3cccnc3)cnn21 next? 9.08
